assay: STAT1 signaling activators, primary screen, cell-based, HTS, luciferase reporter (AID 932); settings: NIH 3T3 STAT1-luciferase reporter, IFN-gamma, luminescence; at 5.5 µM; 100% = IFN-gamma alone, no compound
About 5,100 (2.5%) of roughly 200,000 compounds were called active.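 Rule for the calls: active = activation above the screen-wide mean activation plus 3 SD (cut at about 130% in these data); inactive = the rest.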 Shown is part of a subset that was picked to be rich in actives.
# output must be one of T = active, F = inactive

Record excerpt, results attached:
entry_smiles=CN(CCOc1ccc(Br)cc1)CC(=O)Nc1cccc(S(=O)(=O)NC2=NCCC2)c1 assigned_label=F
entry_smiles=C/C(=N/NS(=O)(=O)c1ccccc1)c1ccc(NC(=O)C(F)(F)F)cc1 assigned_label=F

## Input Tell me the recorded outcome of this test for C/C(=N\NS(=O)(=O)c1ccc(Cl)cc1)c1ccc(NC(=O)c2ccco2)cc1 .
## Output T

## Input # fetch the recorded call for O=C(Nc1ccc(Oc2ccccc2)cc1)c1ccco1 here
## Output T

## Input Lab log entry: O=C1CC(c2ccccc2)=NN1c1ccc([N+](=O)[O-])cc1 — outcome as called in the assay?
## Output F

====

experiment: STAT1 signaling activators, primary screen, cell-based, HTS, luciferase reporter (AID 932); details: NIH 3T3 STAT1-luciferase reporter, IFN-gamma, luminescence; at 5.5 µM; 100% = IFN-gamma alone, no compound
Among all 200,000 compounds or so, about 5,100 (2.5%) were called active.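 The calls were made as follows: active = activation above the screen-wide mean activation plus 3 SD (cut at about 130% in these data); inactive = the rest.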 The full list was thinned out, with actives kept by preference.
Allowed answers: active, inactive

Would you please look over these solved cases?
compound="Cc1cc(C2=NNC(=Nc3ccc(S(=O)(=O)N4CCOCC4)cc3)SC2)c(C)n1CC1CCCO1 (stereo unspecified)" assigned_label=inactive
compound=O=C(Nc1ccccc1)OCc1cc(-c2ccc(Cl)cc2)on1 assigned_label=inactive
compound="O=C(Nc1ccc(Cl)cc1)C1c2cccc[n+]2CC(=O)N1Cc1ccc2c(c1)OCO2 (stereo unspecified)" assigned_label=inactive
compound=C=CCn1c(C)cc(C2=NNC(=NCC)SC2)c1C assigned_label=inactive
compound=COCCn1c(C)cc(C2=NNC(=Nc3ccc(F)cc3)SC2)c1C assigned_label=active

Next up:
## Input I would be grateful if you could indicate the recorded call for Clc1ccc(-c2cc(C3CCNCC3)[nH]n2)c(Cl)c1 .
## Output active

====

assay: STAT1 signaling activators, primary screen, cell-based, HTS, luciferase reporter (AID 932); settings: NIH 3T3 STAT1-luciferase reporter, IFN-gamma, luminescence; at 5.5 µM; 100% = IFN-gamma alone, no compound
Out of some 200,000 compounds screened, about 5,100 (2.5%) were called active.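 The calls were made as follows: active = activation above the screen-wide mean activation plus 3 SD (cut at about 130% in these data); inactive = the rest.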 The list comes from a sample in which actives are over-represented; it also holds close analogues and randomly drawn compounds.
Respond with a class label; see active, inactive

Consider the following illustrative entries.
compound=CCOC(=O)N/N=C/c1cccnc1 assigned_label=inactive
compound=CCNC(=O)N1c2ccccc2Sc2ccccc21 assigned_label=inactive
compound=CCOc1cccc(C(=O)Nc2cccnc2)c1 assigned_label=inactive
compound=CCN1CCN(C(=O)CCN2C(=O)c3ccccc3C2=O)CC1 assigned_label=inactive
compound=O=C(O)Cc1sc(-c2ccccc2)nc1-c1cccs1 assigned_label=inactive
compound=Oc1ccc(-c2csc(Nc3cccnc3)n2)cc1 assigned_label=inactive
compound=C/C(=N\Nc1ncc(Cl)cc1Cl)c1cccs1 assigned_label=active
compound=O=C(NC(=S)Nc1cccc(-c2ccc(CO)o2)c1)c1cccs1 assigned_label=inactive

## Input Dear all, I need the recorded test outcome for Cc1ccc(C(=O)CNc2ccc(F)cc2)cc1 , thank you.
## Output inactive

## Input Recorded test outcome, item O=C(NCc1ccccc1)C1=C[C@@H](c2ccc(C(F)(F)F)cc2)C[C@@H](OCc2ccc(CO)cc2)O1
## Output inactive

## Input Please indicate how the test categorized OCCNc1nc2ccccc2[nH]1 .
## Output inactive

## Input Per the records of this test, what outcome belongs to O=C(COC(=O)CC1CC2CCC1C2)NC(=O)NC1CCCC1 (configuration not stated) ?
## Output inactive

## Input Which result was noted for this compound in the test: C/C(=N\Nc1ncc(Cl)cc1Cl)c1ccc(S(=O)(=O)NCc2ccco2)cc1
## Output active

## Input Write down the call the test reported for this compound. Item: COc1ccc(-c2ccc(CCC(=O)O)n2-c2ccc(O)cc2)cc1
## Output inactive

## Input For Cc1ccc(-n2nc3cc(C)c(NC(=O)c4cccnc4)cc3n2)cc1 , what call appears in the results of this test?
## Output inactive
